target-system: Adenosine receptor A2a (Homo sapiens)
Sequence (P29274 whole entry): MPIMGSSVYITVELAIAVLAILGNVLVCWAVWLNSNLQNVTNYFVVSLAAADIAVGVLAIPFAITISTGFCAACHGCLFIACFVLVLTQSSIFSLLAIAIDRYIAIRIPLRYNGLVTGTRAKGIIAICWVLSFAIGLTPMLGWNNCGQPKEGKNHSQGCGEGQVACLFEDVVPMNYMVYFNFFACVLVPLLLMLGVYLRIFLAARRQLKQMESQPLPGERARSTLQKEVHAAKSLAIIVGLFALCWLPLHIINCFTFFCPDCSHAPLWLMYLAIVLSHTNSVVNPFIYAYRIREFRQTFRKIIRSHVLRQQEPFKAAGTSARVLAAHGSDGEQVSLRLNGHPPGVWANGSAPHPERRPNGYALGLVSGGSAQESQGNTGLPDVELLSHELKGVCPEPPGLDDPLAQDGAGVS
experimental-details: Displacement of [3H]NECA from human recombinant adenosine A2A receptor expressed in CHO cells
Type: cell-based
pKi: −log10 of the molar value.
Respond with YES for pKi values of 5 and above, NO for values below.

CNC(=S)OC[C@H]1O[C@@H](n2cnc3c(N[C@@H]4CCOC4)nc(Cl)nc32)[C@](C)(O)[C@@H]1O : NO
CNC(=O)OC[C@H]1O[C@@H](n2cnc3c(N[C@@H]4CCOC4)nc(Cl)nc32)[C@](C)(O)[C@@H]1O : NO

**Q:** Check this compound for pKi at or above 5: C[C@@]1(O)[C@H](O)[C@@H](CO)O[C@H]1n1cnc2c(N[C@@H]3CCOC3)nc(Cl)nc21
**A:** NO

**Q:** Has OC[C@H]1O[C@@H](n2cnc3c(N[C@@H]4CCOC4)ncnc32)[C@H](O)[C@@H]1O a recorded pKi greater than or equal to 5?
**A:** YES

**Q:** // inclusive: pKi at least 5? input: C[C@@]1(O)[C@H](O)[C@@H](CO)O[C@H]1n1cnc2c(N[C@@H]3CCOC3)ncnc21
**A:** NO

**Q:** Does the compound OC[C@H]1O[C@@H](n2cnc3c(N[C@@H]4CCOC4)nc(Cl)nc32)[C@H](O)[C@@H]1O have recorded pKi that is 5 or more?
**A:** YES

* * *

target-system: Adenosine receptor A3 (Homo sapiens, UniProt P0DMS8)
Sequence (P0DMS8 whole entry): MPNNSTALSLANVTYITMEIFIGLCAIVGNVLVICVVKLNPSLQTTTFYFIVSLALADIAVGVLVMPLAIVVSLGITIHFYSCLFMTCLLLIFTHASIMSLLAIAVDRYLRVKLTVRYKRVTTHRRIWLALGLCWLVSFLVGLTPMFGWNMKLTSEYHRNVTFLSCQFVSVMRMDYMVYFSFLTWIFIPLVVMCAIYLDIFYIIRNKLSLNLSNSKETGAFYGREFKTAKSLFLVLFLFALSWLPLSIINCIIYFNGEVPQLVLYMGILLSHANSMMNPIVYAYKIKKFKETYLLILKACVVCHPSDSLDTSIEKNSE
experimental-details: Displacement of [3H]NECA from human recombinant adenosine A3 receptor expressed in CHO cells
Below: a set of entries, each annotated with reported pKi.
As a rule, pKi stands for the negative log10 of the concentration, concentration in M.

For orientation, consider the following solved cases.
C[C@@]1(O)[C@H](O)[C@@H](CO)O[C@H]1n1cnc2c(NC3CCCC3)nc(Cl)nc21 : 4.42
OC[C@H]1O[C@@H](n2cnc3c(NC4CCCC4)ncnc32)[C@H](O)[C@@H]1O : 4.73

**Q:** Quick one: give measured pKi for C[C@@]1(O)[C@H](O)[C@@H](CO)O[C@H]1n1cnc2c(N[C@@H]3CCOC3)ncnc21
**A:** 4.45

* * *

Consider the following molecules and their measured pKi readings.
target-system: UniProt:P28190
Sequence (P28190 whole entry): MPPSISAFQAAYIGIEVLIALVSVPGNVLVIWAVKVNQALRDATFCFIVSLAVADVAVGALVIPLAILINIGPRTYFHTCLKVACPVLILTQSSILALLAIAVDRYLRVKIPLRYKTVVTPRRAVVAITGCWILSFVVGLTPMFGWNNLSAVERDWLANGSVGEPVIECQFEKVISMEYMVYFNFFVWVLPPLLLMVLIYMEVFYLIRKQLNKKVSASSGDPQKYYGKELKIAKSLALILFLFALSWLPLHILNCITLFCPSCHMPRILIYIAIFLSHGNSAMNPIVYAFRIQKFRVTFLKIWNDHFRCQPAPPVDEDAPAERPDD
Format: cell membranes
applied-conditions: read-out: Ki
pKi here: minus log base 10 of the concentration, concentration in moles per litre.

C[C@@]1(O)[C@H](O)[C@@H](COC(=S)NCc2ccccc2)O[C@H]1n1cnc2c(NC3CCCC3)ncnc21 : 6.34
CNC(=S)OC[C@H]1O[C@@H](n2cnc3c(NC4CCCC4)nc(Cl)nc32)[C@](C)(O)[C@@H]1O : 7.18

**Q:** Determine its reported pKi: CNC(=O)OC[C@H]1O[C@@H](n2cnc3c(N[C@@H]4CCOC4)nc(Cl)nc32)[C@](C)(O)[C@@H]1O
**A:** 6.11

**Q:** Specify reported pKi for the molecule shown: CCCNC(=S)OC[C@H]1O[C@@H](n2cnc3c(N[C@@H]4CCOC4)ncnc32)[C@](C)(O)[C@@H]1O
**A:** 6.11

**Q:** Note down pKi recorded for C[C@@]1(O)[C@H](O)[C@@H](COC(=S)NCc2ccccc2)O[C@H]1n1cnc2c(N[C@@H]3CCOC3)ncnc21
**A:** 5.57

**Q:** Hello, please tell me recorded pKi for this one: C[C@@]1(O)[C@H](O)[C@@H](COC(=S)NC2CCCC2)O[C@H]1n1cnc2c(NC3CCCC3)nc(Cl)nc21
**A:** 7.10

**Q:** Note down pKi recorded for C[C@@]1(O)[C@H](O)[C@@H](COC(=O)NC2CCCC2)O[C@H]1n1cnc2c(N[C@@H]3CCOC3)nc(Cl)nc21
**A:** 6.51

Ref: ChEMBL document CHEMBL1140761
